Source of measurements: patent US20230373985A1

Hi there, I'd appreciate the recorded IC50 for every entry that follows.
Molecular target: G2019S human LRRK2, catalytic site (Homo sapiens, UniProt Q5S007, G2019S)
Construct: G2019S human LRRK2, catalytic site
Sequence (Q5S007 970-2527 G2019S limits assumed): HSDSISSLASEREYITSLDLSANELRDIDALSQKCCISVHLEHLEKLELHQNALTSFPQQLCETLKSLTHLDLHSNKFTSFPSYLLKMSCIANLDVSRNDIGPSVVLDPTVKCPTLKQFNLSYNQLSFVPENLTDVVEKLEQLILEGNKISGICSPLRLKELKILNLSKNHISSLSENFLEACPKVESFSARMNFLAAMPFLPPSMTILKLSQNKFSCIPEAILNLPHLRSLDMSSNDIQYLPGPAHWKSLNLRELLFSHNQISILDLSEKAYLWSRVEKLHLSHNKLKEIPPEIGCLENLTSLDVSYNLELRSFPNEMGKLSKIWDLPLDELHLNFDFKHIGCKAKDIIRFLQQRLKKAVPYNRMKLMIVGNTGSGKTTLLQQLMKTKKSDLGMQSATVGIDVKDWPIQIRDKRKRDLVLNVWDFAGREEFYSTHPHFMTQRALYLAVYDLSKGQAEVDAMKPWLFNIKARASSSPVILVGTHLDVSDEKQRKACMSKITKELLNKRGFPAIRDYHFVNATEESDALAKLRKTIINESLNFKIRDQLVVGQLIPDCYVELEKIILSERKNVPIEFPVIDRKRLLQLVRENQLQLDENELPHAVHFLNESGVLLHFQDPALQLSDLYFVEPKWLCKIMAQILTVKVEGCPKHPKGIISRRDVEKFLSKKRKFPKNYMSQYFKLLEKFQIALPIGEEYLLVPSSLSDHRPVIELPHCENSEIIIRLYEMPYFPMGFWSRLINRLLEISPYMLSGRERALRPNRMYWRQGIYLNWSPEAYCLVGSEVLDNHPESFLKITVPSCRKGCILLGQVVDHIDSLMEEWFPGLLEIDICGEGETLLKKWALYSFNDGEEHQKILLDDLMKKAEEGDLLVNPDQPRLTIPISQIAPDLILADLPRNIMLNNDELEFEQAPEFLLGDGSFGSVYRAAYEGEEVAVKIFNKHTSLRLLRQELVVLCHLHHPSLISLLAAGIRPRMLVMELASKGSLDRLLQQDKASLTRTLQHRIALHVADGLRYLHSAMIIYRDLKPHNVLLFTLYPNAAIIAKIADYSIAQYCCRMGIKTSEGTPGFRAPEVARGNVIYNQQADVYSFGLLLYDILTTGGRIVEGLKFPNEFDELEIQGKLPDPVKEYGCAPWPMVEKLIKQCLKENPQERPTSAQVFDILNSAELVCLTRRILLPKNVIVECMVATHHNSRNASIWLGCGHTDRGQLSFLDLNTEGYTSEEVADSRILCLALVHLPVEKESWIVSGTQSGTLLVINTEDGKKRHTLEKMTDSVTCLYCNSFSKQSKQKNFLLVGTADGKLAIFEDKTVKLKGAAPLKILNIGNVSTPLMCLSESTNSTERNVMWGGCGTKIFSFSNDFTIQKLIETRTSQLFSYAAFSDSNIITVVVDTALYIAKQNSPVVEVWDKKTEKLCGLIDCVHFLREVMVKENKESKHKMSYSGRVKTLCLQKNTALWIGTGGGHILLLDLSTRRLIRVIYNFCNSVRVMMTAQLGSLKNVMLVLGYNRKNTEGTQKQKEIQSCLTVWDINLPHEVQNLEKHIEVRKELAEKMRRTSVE
Assay: TR-FRET LanthaScreen Eu Kinase Binding Assay, LRRK2 G2019S
Conditions: LRRK2(G2019); one range stated for wt and G2019; read-out: IC50, Activity Toward LRRK2(G2019)

Problem: Return IC50 (reported value) for this compound: CCn1ccnc1-c1ccc(Nc2cn(-c3c(Cl)cccc3Cl)nc2C(N)=O)cc1
Solution: 100 to 1000 nM

Problem: Return IC50 (reported value) for this compound: CN1CCC(N(C)C(=O)c2ccc(Nc3cn(-c4c(Cl)ccc(F)c4Cl)nc3C(N)=O)cc2)CC1
Solution: 100 to 1000 nM

Problem: Return IC50 (reported value) for this compound: CCc1cnncc1-c1ccc(Nc2cn(-c3c(Cl)cccc3Cl)nc2C(N)=O)cc1
Solution: 100 to 1000 nM

Problem: Return IC50 (reported value) for this compound: CCNC(=O)c1ccc(Nc2cn(-c3c(Cl)cccc3Cl)nc2C(N)=O)cc1
Solution: 100 to 1000 nM

Problem: Return IC50 (reported value) for this compound: NC(=O)c1nn(-c2c(Cl)cccc2Cl)cc1Nc1ccc(C(=O)N2CCC(N)C2)cc1 (centres unmarked)
Solution: 100 to 1000 nM

Problem: Return IC50 (reported value) for this compound: Cc1ccn(-c2ccc(Nc3cn(-c4c(F)cccc4Cl)nc3C(N)=O)cc2)n1
Solution: 100 to 1000 nM

Problem: Return IC50 (reported value) for this compound: NC(=O)c1nn(-c2c(Cl)cccc2Cl)cc1Nc1ccc(-n2cc3c(n2)CCOC3)cc1
Solution: 100 to 1000 nM

Problem: Return IC50 (reported value) for this compound: NC(=O)c1nn(-c2c(Cl)cccc2Cl)cc1Nc1cnn(-c2ncccc2F)c1
Solution: 100 to 1000 nM

Problem: Return IC50 (reported value) for this compound: NC(=O)c1nn(-c2c(Cl)cccc2Cl)cc1Nc1ccc(C(=O)N2CC[C@@H](F)C2)cc1
Solution: 100 to 1000 nM

Problem: Return IC50 (reported value) for this compound: Cn1cc(Nc2cn(-c3c(F)cccc3Cl)nc2C(N)=O)cn1
Solution: 100 to 1000 nM

Problem: Return IC50 (reported value) for this compound: CN1CCC(Oc2ccc(Nc3cn(-c4c(F)cccc4F)nc3C(N)=O)cc2)CC1
Solution: 100 to 1000 nM

Problem: Return IC50 (reported value) for this compound: NC(=O)c1nn(-c2c(F)cccc2Cl)cc1Nc1ccc(-c2nnc3n2CCCC3)cc1
Solution: 10 to 100 nM

Problem: Return IC50 (reported value) for this compound: CCNC(=O)c1ccc(Nc2cn(-c3c(F)cccc3F)nc2C(N)=O)cc1
Solution: 100 to 1000 nM

Problem: Return IC50 (reported value) for this compound: Cc1ncn(C)c1-c1ccc(Nc2cn(-c3c(Cl)cccc3Cl)nc2C(N)=O)cc1
Solution: 100 to 1000 nM

Problem: Return IC50 (reported value) for this compound: NC(=O)c1nn(-c2c(F)cccc2Cl)cc1Nc1ccc(C(=O)NC2CCCNC2)cc1 (centres unmarked)
Solution: 100 to 1000 nM

Problem: Return IC50 (reported value) for this compound: NC(=O)c1nn(-c2c(F)cccc2F)cc1Nc1nc2ccccc2[nH]1
Solution: 100 to 1000 nM

Problem: Return IC50 (reported value) for this compound: NC(=O)c1nn(-c2c(Cl)cccc2Cl)cc1Nc1ccc(C(=O)N2CC3(CCC3)C2)cc1
Solution: 100 to 1000 nM
